Tested on: CAKI-1 renal
testName: NCI-60 one-dose screen, 48 h
reportedConditions: 10 µM unless noted
About 83,000 compounds went through this panel and 20% of them were active in at least one assay; those are over-represented in the sample as a whole. Active and inactive are the calls of the source. How the source made its calls: active means growth percent below 10; inactive means the rest.
Assign a class; possible classes are active, inactive

chemicalSmiles	cat
N#Cc1ccc(OC(=O)Nc2c(Cl)cc(Cl)cc2Cl)cc1	inactive
OCCOc1ccc(-c2cc(-c3ccccn3)nc(-c3ccccn3)c2)cc1	active
COc1cc(C(=O)N2CCN(c3ccccc3)CC2)c2ccccc2n1	inactive
Nc1cc(F)ccc1[N+](=O)[O-]	inactive
C#CCSc1nnnn1-c1ccccc1	inactive
O=C(CCl)Nc1ccccc1SCc1cc(Cl)cc2c1OCOC2	inactive
C/C(O)=C(/C=N\C(=S)Nc1ccc(S(=O)(=O)Nc2nccs2)cc1)C(=O)Nc1ccccc1C	inactive
Cc1cc2nc(C)c(C)nc2cc1C	inactive

Problem: Hey, what did the test say about C=CCN1CCCC1=O ?
Result: inactive

Problem: Hey, what did the test say about Cc1onc(-c2ccccc2Cl)c1C(=O)Cl ?
Result: inactive

Problem: Hey, what did the test say about C=C1SC(=Nc2c(C)cccc2C)N(c2nc(Cl)nc(Cl)n2)C12CCCCC2 ?
Result: inactive

Problem: Hey, what did the test say about Cc1ccc(NC(=S)N2CCOCC2)cc1C ?
Result: inactive

Problem: Hey, what did the test say about ON1CCCC1 ?
Result: inactive
